Source: patent US20240308998A1

Recorded IC50 by entry
- tgt: BRD4 BD1 (Homo sapiens, UniProt O60885)
- Construct: HEK293 cells were transfected using NanoLuc-BRD4-BD1 or NanoLuc-BRD4-BD2 fusion vectors
- protocol_description: NanoBRET bromodomain assay, BRD4 BD1
- condition: HEK293 cells transfected with NanoLuc-BRD4-BD1

Prompt: Which IC50 value is on record for Cn1cc(-c2ccccc2)c(-c2cn(C)c(=O)c3[nH]c(-c4ccccc4)cc23)cc1=O [Example 63] ?
Completion: > 1000 nM

* * *

- tgt: BRD4 BD1 (Homo sapiens, UniProt O60885)
- Construct: HEK293 cells were transfected using NanoLuc-BRD4-BD1 or NanoLuc-BRD4-BD2 fusion vectors
- protocol_description: NanoBRET bromodomain assay, BRD4 BD1
- condition: HEK293 cells transfected with NanoLuc-BRD4-BD1
value_kind: IC50

{"compound": "Cc1cccc(C)c1Oc1cn(C)c(=O)cc1-c1cn(C)c(=O)c2[nH]c(-c3cnn(CS(C)(=O)=O)c3)cc12 [Example 65]", "IC50": "> 1000 nM"}
{"compound": "Cc1ccc(F)c(-c2cc3c(-c4cc(=O)n(C)cc4Oc4c(C)cccc4C)cn(C)c(=O)c3[nH]2)c1 [Example 16]", "IC50": "> 1000 nM"}
{"compound": "Cc1cc(-c2cc3c(-c4cc(=O)n(C)cc4-c4ccccc4)cn(C)c(=O)c3[nH]2)cc(C)n1 [Example 62]", "IC50": "50 to 500 nM"}
{"compound": "Cc1cnc(-c2cc3c(-c4cc(=O)n(C)cc4Oc4c(C)cccc4C)cn(C)c(=O)c3[nH]2)[nH]1 [Example 1]", "IC50": "> 1000 nM"}
{"compound": "Cc1ccc(F)cc1-c1cc2c(-c3cc(=O)n(C)cc3Oc3c(C)cccc3C)cn(C)c(=O)c2[nH]1 [Example 18]", "IC50": "> 1000 nM"}

Prompt: Which IC50 value is on record for Cc1ccc(C)c(-c2cc3c(-c4cc(=O)n(C)cc4Oc4c(C)cccc4C)cn(C)c(=O)c3[nH]2)c1 [Example 19] ?
Completion: > 1000 nM

Prompt: Which IC50 value is on record for Cc1cccc(C)c1Oc1cn(C)c(=O)cc1-c1cn(C)c(=O)c2[nH]c(-c3cnn(C)c3C)cc12 [Example 36] ?
Completion: > 1000 nM
